# Measured Target: insulin-like growth factor I (IGF-I) (UniProt P05019 49-118)
# Sequence (P05019 49-118 limits assumed): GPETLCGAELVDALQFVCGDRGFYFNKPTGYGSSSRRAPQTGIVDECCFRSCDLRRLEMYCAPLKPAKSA
# Protocol: cell-based or functional assay
Measurement Kind: IGF-I stimulated Ba/F3 cell proliferation, sFab at 50 µg/ml

Binder	Experimental Value
M0063-F02 Fab (Fab, V domains shown, soluble Fab (sFab); also called R0032-A01) VH: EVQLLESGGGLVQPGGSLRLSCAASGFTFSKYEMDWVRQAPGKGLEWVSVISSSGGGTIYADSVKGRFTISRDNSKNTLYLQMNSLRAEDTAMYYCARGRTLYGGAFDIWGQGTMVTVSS VL: DIQMTQSPSSLSASVGDRVTITCRASQPINTYLNWYQQRPGKAPRILIYTSSTLQSGVPSRFSGSGSGTDFTLTISSVQPEDFATYYCQQSYSFPLTFGGGTKVEIKR	~30 % inhibition

Now consider a different binder.
Measured IGF-I stimulated Ba/F3 cell proliferation, sFab at 50 µg/ml of M0064-E04 Fab (Fab, V domains shown, soluble Fab (sFab); also called R0032-A03; 566A-M0064-E04) VH: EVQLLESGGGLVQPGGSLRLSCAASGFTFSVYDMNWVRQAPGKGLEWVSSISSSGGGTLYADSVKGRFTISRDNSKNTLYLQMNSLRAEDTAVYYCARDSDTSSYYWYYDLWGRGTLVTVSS VL: DIQMTQSPSSLSASVGDRVTITCQASHDISNYLNWYQQKPGKAPKLLIYAASRLQSGVPSRFSGGGSGTDFSLTISSLQAEDFATYYCQQSYSFPRTFGQGTNLEIKR : ~30 % inhibition
